Origin of measurements: paper PMC10397247

A collection of binders and their measured interaction score
# target: T1, 4H331-bN
# T1 chain: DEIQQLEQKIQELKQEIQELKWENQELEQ
# procedure-text: two-hybrid library CCNG1;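 also: natural log of median RNA to DNA barcode read ratio; higher means stronger binding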
Write no unit; give the number alone.

>  <binder>
DENQQLEQKNQELEQKIQELEWKIQELKQ [4H1446-bN]

>  <assay-result>
1.22

$$$$
>  <binder>
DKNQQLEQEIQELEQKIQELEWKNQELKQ [4H3112-bN]

>  <assay-result>
-0.918

$$$$
>  <binder>
DKIQQLKQENQELEQEIQELKWEIQELEQ [4H2697-bN]

>  <assay-result>
-0.941

$$$$

Proceeding to the next binder to report its interaction score.
Can you look up the measured interaction score of DKIQQLKQENQELEQKIQELKWEIQELEQ [4H2729-bN] for me? -1.39
